- Target Entity: DS-Cav1 (RSV F-protein, pre-form, in-house) (respiratory syncytial virus (RSV), UniProt P03420 26-513)
- Sequence (P03420 26-524): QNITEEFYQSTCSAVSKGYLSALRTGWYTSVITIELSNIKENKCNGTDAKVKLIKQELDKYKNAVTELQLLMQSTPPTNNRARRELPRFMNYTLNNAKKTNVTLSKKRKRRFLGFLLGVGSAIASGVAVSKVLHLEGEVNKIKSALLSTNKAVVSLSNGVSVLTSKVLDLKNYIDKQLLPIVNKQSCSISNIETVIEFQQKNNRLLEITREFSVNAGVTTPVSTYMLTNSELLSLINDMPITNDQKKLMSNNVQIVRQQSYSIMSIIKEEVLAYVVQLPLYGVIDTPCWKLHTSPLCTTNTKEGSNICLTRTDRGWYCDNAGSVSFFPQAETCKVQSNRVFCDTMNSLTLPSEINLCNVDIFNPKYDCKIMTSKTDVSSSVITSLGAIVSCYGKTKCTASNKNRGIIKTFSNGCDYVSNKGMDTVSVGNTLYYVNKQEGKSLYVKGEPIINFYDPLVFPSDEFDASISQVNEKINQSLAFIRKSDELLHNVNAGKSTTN
- Experiment: ELISA, coated DS-Cav1, IgG titrated
Parameter Measured: Kd

Value of measured Kd for the entry #16m (antibody, V domains shown, Germline-edited (m) form of 3H8, light chain edited; IgG; also called 3H8 (modified)) VH: EVQLVESGGGLVKPGGSLRLSCAGSGFTFSSYTMHWVRQAPGKGLEWVSSITGGSSYVDYSASVKGRFTISRDNAQSSLYLQMNSLRAEDTAVYYCARDDYGSGSYSNWFDPWGRGTTVTVSS VL: QSVLTQPLSASGTPGQRVTISCTGSSSNIGAGYDVHWYQQLPGRAPKLLIFANTNRPSGVPDRFSGSKSGTSASLAITGLQAEDEADYYCQSYDRSLSHVFGTGTKVTVLG : ~970 pM

Value of measured Kd for the entry 2H3 (antibody, V domains shown, IgG made in Expi293; also called 2F5; #65) VH: EVQLVESGGGVVQSGRSLRLSCAGSGFTFSSYTMHWVRQAPGKGLEWVSSITGGSSYVDYSASVKGRFTISRDNAQSSLYLQMNSLRAEDTAVYYCARDDYGSGSYSNWFDPWGQGTLVTVSS VL: QSVLTQPPSVSGAPGQRVTISCTGSSSNIGAGYDVHWYQQVPGTAPKLLIFGSTNRPSGVPDRFSGSKSGASASLAITGLQTEDEADYYCQSYDRSLSHVFGTGTKVTVLG : ~980 pM

Value of measured Kd for the entry #11m (antibody, V domains shown, Germline-edited (m) form of 12E9, light chain edited; IgG; also called 12E9 (modified)) VH: EVQLVESGGGLVKPGGSLRLSCAASGFTFTSYRMHWVRQAPGKGLEWVSSITGGGNYIEYADSVKGRFTISRDNAQSSLYLQMNSLRAEDTAVYYCARDDYGSGSYSNWFDPWGQGTLVTVSS VL: QSVLTQPPSVSGAPGQRVTISCTGSSSNIGAGYDVHWYQQLPGRAPKLLIFANTNRPSGVPDRFSGSKSGASASLAITGLQADDEADYYCQSYDRSLSHVFGTGTKVTVLG : ~2010 pM

Data credit: patent US20240182547A1
